PROTOCOL: yeast display, Sf9 membrane polyspecificity reagent, FACS + sequencing; frameworks hold sequencing errors
ATTRIBUTE_MEASURED: polyreactivity (PSR sort gate)

1. QVQLVESGGRLVQAGGSLRLSCAASGRIFRGYAMGWYRQEPGKERELVAAISQSGSSTYYADSVKGRFTISRDNAKNTVYLQMNSLKPEDTAVYYSAVIYVKHFGYWGLGTQVTVSS    high polyreactivity
2. QVQLVESGGGLVQAGGSLRLSCAASGRTLHYYAMGWYRQAPGKERELVAAISRTGSTDYADSVKGRFTISRDNAKNTVYLQMNSLKPEDTAVYYCAAYYRYRSGRYYYWGQGTQVTVSS    high polyreactivity
3. QVQLVESGGGLVQAGGSLRLSCAASGRIFSRYTMGWYRQAPGKERELVAAISSRGGSTYYADSVKGRFTISRDNAKNTVYLQMNSLKREDTAVYYCNTPSYSGSSPYDHWGQGTQVTVSS    high polyreactivity
4. QVQLVESGGGIVQAGGSLRLSCAASGYTFTGYSMGWYRQAPGKEREFVAGITWRTGRTYYADSVKGRFTISRDNAKNNVYLQMNSLKREDTAVYFCYKDHQRRYYWSYDYWGQGTQVTVSS    low polyreactivity
5. QVQLVESGGGLVQAGGSLRLSCAASGSTLVGYVMGWYRQAPGKERELVAAITTVGSTYYADSVKGRFTISRDNAKNTVYLQMNSLKPEDTAVYYCNAVRAYVDLRTGHFRGDYWGQGTQVTVSS    low polyreactivity
6. QVQLVESGGGLVQAGGSLRLSCAASGITFGRNTMGWYRQAPGKERELVAAIDSGGNTYADSVKGRFTISRDNAKNTVYLQMNSLKPEDSAVYYCAVDGGEFSSYGYWGQGTQVTVSS    low polyreactivity
7. QVQLVESGGGLVQAGGSLRLSCAASGRTFVGYAMGWYRQAPGKERELVAAMSASGTSTYYADSVKGRFTISRDNAKNTVYLQMNSLKPEDTAVYYCAKAKDLPPRYGSWGQGTQVTVSS    high polyreactivity
8. QVQLVESGGALVQAGGSLRLSCAASRSTSKNYAMGWYRQAPGKERELVAAITRGTSTNYADSVKGRFTISRDNAKNTVYFQMNSLKPEDSAVYYCNVERHRVWDYQWREEDDYWGQGTQVTVSS    low polyreactivity
9. QVQLVESGGGLVQAGGSLRLSCAASGFTFGPYAMGWYRQAPGKERELVAAISQSGGRTSYADSVKGRFTISRDNAKNTVYLQMNSLKPEDTSVYYCAKRAYGYRSIYRMDYWGQGTQVTVSS    high polyreactivity
10. QVQLVESGGGLVQAGVSLRLSCAASGRIFIVYAMGWYRQAPGKERELVAAISWRGGNTYYADSVKARFTISRDNAKNTVYLQMNSLKPEDTAVYYCAARQYGTAAFDYWGQGTQVTVSS    high polyreactivity

---

PROTOCOL: yeast display, Sf9 membrane polyspecificity reagent, FACS + sequencing; frameworks hold sequencing errors
ATTRIBUTE_MEASURED: polyreactivity (PSR sort gate)

1. QVQLVESGGGLVQAGGSLRLSCAASGIILRRYAMGWYRQAPGKERELVARISYRGGRTNYADSVKGRFTISRDNAKNTVYLQMNSLKPEDTAVYYCAAVAWYYHEGTAYNYWGQGTQVTVSS    high polyreactivity
2. QVQLVESGGGLVQAGGRHRLTCAASGYTFDWYTMGWYRQAPGTERELVAAISASGVRTYYADSVKGRFTISSDNAKNSVYLQMNSLKPEDTAVYYCYRVYSTSRITEYEFDYWGQGTQVTVSS    low polyreactivity
3. QGQLVESGGGLVQAGGSLRLSCAASGSTFNSYAMGWYRQAPGKERELVAAISRGGASTYYADSVKGSFTISRDNAKNTVYLQMNSLKPEDTAVYYCATVYYHRFDYWGQGTQVTVSS    high polyreactivity
4. QVQLVESGGGLVQAGGSVSLSCAASGTFSPYAMGWYRQAPGKERELVADITSNTGRTYADSVKGRFTISRDNAKNTVYLKMNSLKPEDTSVYYCNTYGSGTHSSGYDYWGQGTQVTVSS    low polyreactivity
5. QVQLVESGGGLVQAGGSLRLSCAASGRIFTQYAMGWYRPAPGKERELVAAISSSGVRTYYADSVKGRFTISRDNAKNNVYLQMNSLKPEDTAVYYCAVRRGGAYYQFGYWGQGTQVTVSS    high polyreactivity
6. QDQLVESGGGLDQAGGSLRLSCAASGSTLGNNAMGWYRQAPGKERELVAAISTRGGSTYYADSVKGRFTISRDNAKNTVYLQMNSLKPEDTAVYYCAADFGQYHGDVRKMDYWGQGTQVTVSS    low polyreactivity
7. QVQLVESGGGLVHAGGSLRLSCAASGSTFYYNAMGWYRQAPGKERELVAAITKSGDDTYYADSEKGRFTISRDNATNTVYLQMNSLKPEDTAVSYCAAYLSWYDYWGQGTQVTVSS    low polyreactivity
8. QVQLVESGGGLVKAGCSLRLSCADSGFIFSSYAMGWYRQAPGIERELVAAITRSGGITYYADSLKGRFTISRDNAKITVYLQMNSLKPEDTAVYYCAARWRYYRGYSRQRPYEFDYWGQGTQVTVSA    high polyreactivity
9. QVQLVESGGGLVQAGGSLRLSCAASGSTVAYYAMGWYRQAPGKERELVAAITIDGRTSYADSVKGRFTISRDNAKNTVYLQMNSLKREDTAVYYCARGYFPYGYPWRWGYDRFDYWGQGTQVTVSS    low polyreactivity
10. QVQLVESGGGLVQAGGSLRLSCAASGIIFPVYTKGWYRQAPGKERELVAAISTSGGRTYYADSVKGRFTISRDNAKNTVYLQMNSLKPEYTAVYYCAAKRYTRKAGYYYWGQGTQVTVSS    high polyreactivity
